Reported protein stability index is given for each of the following variants.
B1: SLC35F2 (parent)
chain: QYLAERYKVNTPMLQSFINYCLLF

Variants of: B1
TEST_DESCRIPTION: protein stability index of a GFP-peptide fusion (GPS, HEK-293T) (PSI 1-6); higher = more stable;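 also: lentivirally expressed fusions sorted by FACS into six bins by GFP to DsRed ratio, PSI derived from sequencing read proportions per bin multiplied by bin number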
CONDITION_SUMMARY: c terminus: a fixed tail appended
Give the figure by itself; no unit, no explanation.

mutation_descriptor=L3Q recorded_value=2.94
mutation_descriptor=T11A recorded_value=2.13
mutation_descriptor=M13G recorded_value=2.2
mutation_descriptor=C21Q recorded_value=2.3
mutation_descriptor=N10I recorded_value=2.88
mutation_descriptor=L23N recorded_value=2.59
mutation_descriptor=Q1F recorded_value=2.37
mutation_descriptor=N19T recorded_value=2.51
mutation_descriptor=K8Q recorded_value=2.13
mutation_descriptor=C21Y recorded_value=3.61

Per the record, P12C has protein stability index of 3.04

Per the record, M13I has protein stability index of 2.52

Per the record, L23E has protein stability index of 1.78

Per the record, N19Y has protein stability index of 2.31

Per the record, L3P has protein stability index of 3.5

Per the record, A4G has protein stability index of 3.01

Per the record, Y2E has protein stability index of 1.93

Per the record, A4K has protein stability index of 3.59

Per the record, E5N has protein stability index of 2.62

Per the record, Y7H has protein stability index of 2.95

Per the record, A4N has protein stability index of 3.76

Per the record, S16H has protein stability index of 1.83
